Test system: RPMI-8226
METHOD: NCI tumour cell line growth inhibition, 48 h
Calls of active or inactive are those of the source. Rule as the data show it: active = GI50 up to about 1.1 µM and inactive = higher.
GI50 reference
ATTRIBUTE MEASURED: GI50

[[record]]
compound = "COc1ccc(-c2nc(Nc3ccccc3)sc2Cc2sc(Nc3ccccc3)nc2-c2ccc(OC)cc2)cc1"
reported_result = "1.8 µM (inactive)"

[[record]]
compound = "COc1ccc(CCN2C(=O)CC34C=CC(CC3C2=O)O4)cc1OC (centres undefined)"
reported_result = "> 100 µM (inactive)"

[[record]]
compound = "CC(SC(=O)Nc1ccc(/N=N/c2ccccc2)cc1)C(=O)O (centres undefined)"
reported_result = "> 100 µM (inactive)"

[[record]]
compound = "NC1=C(N2CCOCC2)C(=O)NC2=N/C(=C\\c3ccccc3O)C(=O)N21"
reported_result = "20.5 µM (inactive)"

[[record]]
compound = "COC(=O)CN1CCN(c2cccc3c2CCCC3)CC1"
reported_result = "25.1 µM (inactive)"

[[record]]
compound = "CCOC(=O)/C=C(/C)Nc1nc2c(c(C(=O)OC)c1C#N)CCCC2"
reported_result = "> 100 µM (inactive)"

[[record]]
compound = "COc1ccc(-c2c(C#N)c(NC(=S)NC(=O)c3ccccc3)nc3c2CCCC3)cc1OC"
reported_result = "42 µM (inactive)"

[[record]]
compound = "COCCOCOC(C)(C)[C@H](CCO)O[Si](c1ccccc1)(c1ccccc1)C(C)(C)C"
reported_result = "6.17 µM (inactive)"

[[record]]
compound = "COC(=O)C1C(=O)C=CN([C@H](C)c2ccccc2)[C@@H]1Cc1ccc(OC)c(OCc2ccccc2)c1I (some centres undefined)"
reported_result = "14.9 µM (inactive)"


----------
Test system: PC-3
METHOD: NCI tumour cell line growth inhibition, 48 h
Activity calls are given as the source filed them. Rule as the data show it: active = GI50 up to about 1.1 µM and inactive = higher.
Entries and their measured GI50 follow.
ATTRIBUTE MEASURED: GI50

[[record]]
compound = "COC(=O)CN1CCN(c2cccc3c2CCCC3)CC1"
reported_result = "64.6 µM (inactive)"

[[record]]
compound = "CCOC(=O)c1c(SC(=O)c2ccc(Cl)cc2)n(-c2ccccc2)c(=S)n(-c2ccccc2)c1=O"
reported_result = "> 100 µM (inactive)"

[[record]]
compound = "Nc1ccc2c(c1)C(=O)c1ccc(F)cc1-2"
reported_result = "> 100 µM (inactive)"

[[record]]
compound = "COc1ccc(C(=O)/C=C/c2ccc3c(c2)OCO3)c(OCc2ccccc2)c1"
reported_result = "11.6 µM (inactive)"

[[record]]
compound = "CSc1c(C(=O)Nc2ccccc2)c(N)n(N)c(=O)c1C#N"
reported_result = "> 100 µM (inactive)"

[[record]]
compound = "N#CCCN(CCC#N)c1ccc(C(/N=N/c2ccc(Cl)cc2)=N\\c2ccccc2)cc1"
reported_result = "12.6 µM (inactive)"

[[record]]
compound = "Cc1cc2c(C(C)C)c(O)c(O)c(/C=N/c3cc(C(F)(F)F)ccc3Cl)c2c(O)c1-c1c(C)cc2c(C(C)C)c(O)c(O)c(/C=N/c3cc(C(F)(F)F)ccc3Cl)c2c1O"
reported_result = "35 µM (inactive)"

[[record]]
compound = "N#CCC(=O)c1cc(OCc2cc(OCc3ccc(Br)cc3)cc(OCc3ccc(Br)cc3)c2)cc(OCc2cc(OCc3ccc(Br)cc3)cc(OCc3ccc(Br)cc3)c2)c1"
reported_result = "> 100 µM (inactive)"

[[record]]
compound = "O=c1[nH][nH]c(=O)c2c1ccc1oc3ccccc3c12"
reported_result = "> 100 µM (inactive)"

[[record]]
compound = "Cc1c(-c2nc(N)nc(C3CC3)c2C)nc(N)nc1C1CC1"
reported_result = "> 100 µM (inactive)"

[[record]]
compound = "COc1ccc(OC)c2cc(Cc3ccc(N(C)C)cc3)c(=O)c(Cc3ccc(N(C)C)cc3)cc12"
reported_result = "62.1 µM (inactive)"

[[record]]
compound = "COc1ccc(/C=N/NC(=O)c2ccccc2Nc2ccccc2C(=O)N/N=C/c2ccc(OC)c(OC)c2)cc1OC"
reported_result = "> 100 µM (inactive)"

[[record]]
compound = "COC(=O)[C@@H]1[C@H]2CC[C@]3(C)[C@@H](OC(C)=O)CC[C@H]3[C@@H]2CC[C@H]1C(C)=O"
reported_result = "> 100 µM (inactive)"

[[record]]
compound = "CC1=C(C(=O)NC(C)(C)C)CC(C(=O)NC(C)(C)C)C(C)N1 (stereo unspecified)"
reported_result = "> 100 µM (inactive)"

[[record]]
compound = "COC(=O)c1cc(C)ccc1CC(Cc1ccc(C)cc1)C(=O)OC (stereo unspecified)"
reported_result = "37.8 µM (inactive)"

[[record]]
compound = "CC(C)OC(=O)C1=C2c3ncccc3C(=O)N2[C@@H](Cl)[C@H](Cl)[C@H]1Cl"
reported_result = "56.6 µM (inactive)"

[[record]]
compound = "C=CCOCn1ccc(=O)[nH]c1=O"
reported_result = "> 100 µM (inactive)"

[[record]]
compound = "CC1=NN(c2nc(N)nc(COc3ccc(N)cc3)n2)C(C)(C)C1"
reported_result = "> 100 µM (inactive)"

[[record]]
compound = "C/C(=C\\C(=O)O)C(=O)N(C)c1ccccc1I"
reported_result = "> 100 µM (inactive)"

[[record]]
compound = "CCOC(=O)Cc1csc(N/C=C2/C(=O)Oc3ccccc3C2=O)n1"
reported_result = "32.2 µM (inactive)"

[[record]]
compound = "O=C(O)CSC1=NC(=O)C2(NN1)c1ccccc1-c1ccccc12"
reported_result = "> 10 µM (inactive)"

[[record]]
compound = "Oc1c(Cl)c(Cl)c(O)c(CCNc2ccc3ncccc3c2)c1Cl"
reported_result = "28 µM (inactive)"

[[record]]
compound = "CC(=O)Oc1cc2c(cc1OCC(F)(F)F)[C@H]1CC[C@]3(C)[C@@H](OC(C)=O)CC[C@H]3[C@@H]1CC2=O"
reported_result = "14.5 µM (inactive)"

[[record]]
compound = "Cn1c(=O)[nH]c2sc3c(c2c1=N)CCCC3"
reported_result = "> 75 µM (inactive)"

[[record]]
compound = "CN1C(=O)NC(=O)/C(=C\\Nc2ncccn2)C1=O"
reported_result = "> 100 µM (inactive)"

[[record]]
compound = "CN1C(=O)C(c2c[nH]c3ccccc23)N(C)C(=O)C1c1c[nH]c2ccccc12 (stereo unspecified)"
reported_result = "> 100 µM (inactive)"

[[record]]
compound = "CSc1cc(Cl)c(C(=O)Nc2ccccc2)cc1S(=O)(=O)n1ccnc1O"
reported_result = "> 100 µM (inactive)"

[[record]]
compound = "NCC(O)CNCC/C=C\\C/C=C\\C/C=C\\C/C=C\\C/C=C\\C/C=C\\CCCCC/C=C\\CCNCC(O)CN (stereo unspecified)"
reported_result = "1.92 µM (inactive)"

[[record]]
compound = "N=C(N)NCCCC(NC(=O)OCCCCCCn1ccc(N)nc1=O)C(=O)O (stereo unspecified)"
reported_result = "> 100 µM (inactive)"

[[record]]
compound = "N#Cc1nc(Cc2ccccc2)oc1N"
reported_result = "> 100 µM (inactive)"

[[record]]
compound = "C[n+]1ccccc1/C=C/c1ccc2c(c1)OCO2"
reported_result = "> 10 µM (inactive)"


----------
Tested on: CCRF-CEM
METHOD: NCI tumour cell line growth inhibition, 48 h
Active and inactive are the calls of the source. Cut-off read from the data, not from the text of the source: active = GI50 up to about 1.1 µM and inactive = higher.
Classes used: Y for active, N for inactive

[[record]]
molecule = "C=CCSS/C=C/C[S+]([O-])CC=C (stereo not drawn) [AJOENE]"
category_label = "N"

[[record]]
molecule = "O=C(NN1C(=O)CS(=O)(=O)C1c1ccc(C(F)(F)F)cc1)c1ccncc1 (stereo not drawn)"
category_label = "N"

[[record]]
molecule = "COc1ccc(/C=C2\\N=C(SC)N(CN3CCOCC3)C2=O)cc1"
category_label = "N"

[[record]]
molecule = "Fc1ccccc1C1SCc2nc3ccccc3n21 (stereo not drawn)"
category_label = "N"

[[record]]
molecule = "N#Cc1ccccc1-c1nc2c3c(c(N)ccc3n1)C(=O)c1ccccc1-2"
category_label = "N"

[[record]]
molecule = "CC(=O)Nc1ccc2nc(-c3ccccn3)c(-c3ccccn3)nc2c1"
category_label = "N"

[[record]]
molecule = "Cc1ccc(/C=C/C(=O)c2sc(-c3nc(C)c(C(=O)/C=C/c4ccc(C)cc4)s3)nc2C)cc1"
category_label = "N"

[[record]]
molecule = "O=C(O)CSC1=NC(=O)C2(NN1)c1ccccc1-c1ccccc12"
category_label = "N"

[[record]]
molecule = "CC(C)CCOC(=O)NC(Nc1ccc(F)cc1)(C(F)(F)F)C(F)(F)F"
category_label = "N"

[[record]]
molecule = "O=C(CC(=O)C1CCOC1=O)C(=O)Nc1ccc(Cl)cc1Cl (stereo not drawn)"
category_label = "N"

[[record]]
molecule = "Oc1cccc(-c2cc(O)c3cc4c(cc3n2)OCO4)c1"
category_label = "Y"

[[record]]
molecule = "CCOc1ccccc1NC(=O)CCC(=O)OC"
category_label = "N"

[[record]]
molecule = "Cc1c2cc[n+](C)cc2c(C)c2c1[nH]c1ccc(OCC(F)(F)F)cc12"
category_label = "N"

[[record]]
molecule = "NNC(=O)CCC(=O)Nc1cc(Cl)c(Cl)cc1Cl"
category_label = "N"

[[record]]
molecule = "CN(C)c1ccc(/C=N/NC(=S)Nc2ccccc2)cc1"
category_label = "N"

[[record]]
molecule = "CC[C@H](C)[C@H](NC(=O)[C@@]1(O)[C@H](O)[C@]2(CC)C=CCN3CC[C@@]4(c5cc(Br)c(OC)cc5N(C)[C@@H]14)[C@@H]32)C(=O)OC"
category_label = "N"

[[record]]
molecule = "CCOC(=O)/C(C#N)=C/Nc1c(C)n(C)n(-c2ccccc2)c1=O"
category_label = "N"

[[record]]
molecule = "CSc1c(C(=O)Nc2ccccc2)c(N)n(N)c(=O)c1C#N"
category_label = "N"

[[record]]
molecule = "O=c1[nH]c(=O)n(C2OC(CO)C(O)C2O)cc1Oc1ccccc1 (stereo not drawn)"
category_label = "N"

[[record]]
molecule = "COC(=O)/C=C1/CCC(C)(C(=O)NS(=O)(=O)c2ccc(C)cc2)C1(C)C (stereo not drawn)"
category_label = "N"

[[record]]
molecule = "O=c1[nH][nH]c(=O)n1/N=C/c1ccccc1"
category_label = "N"

[[record]]
molecule = "CCN(CC)CCNc1ccc(/N=N/c2ccc(S(N)(=O)=O)cc2)c2ccccc12"
category_label = "N"

[[record]]
molecule = "CC1C2CC(C(S(=O)(=O)O)C2=O)C1(C)C (stereo not drawn)"
category_label = "N"

[[record]]
molecule = "COc1ccccc1/C=C1\\CCC(CCN2CCOCC2)C1=O (stereo not drawn)"
category_label = "N"

[[record]]
molecule = "Cc1ccc(S(=O)(=O)C(CC(=O)N2CCCC2)C(=O)c2ccccc2)cc1 (stereo not drawn)"
category_label = "N"

[[record]]
molecule = "CC1=CC=NN2C(=O)[C@H](C)C2C1 (stereo partly drawn)"
category_label = "N"

[[record]]
molecule = "C/C(CCc1ccccc1)=N\\NC(N)=S"
category_label = "N"

[[record]]
molecule = "CN(C)C(CN)CC1=C(CC(CN)N(C)C)CCC1 (stereo not drawn)"
category_label = "N"


Where do the numbers come from? From ChEMBL document CHEMBL1201862.
